These measurements were taken from PubChem BioAssay (NCI).

- System: 786-0 renal
- assay remarks: NCI tumour cell line growth inhibition, 48 h
The reader will find reported TGI values listed item by item below.

{"molecule": "C/C(COc1ccccc1)=N\\NC(N)=S", "assay target": "786-0 renal", "TGI": "> 100 µM"}
{"molecule": "O=[N+]([O-])c1cc(-c2ccc([As](=O)(O)O)cc2)ccc1[As](=O)(O)O", "assay target": "786-0 renal", "TGI": "> 100 µM"}
{"molecule": "CN(C)c1ccc(/C=C(\\C#N)C(=O)c2ccccc2)cc1Br", "assay target": "786-0 renal", "TGI": "> 100 µM"}
{"molecule": "CC(=O)OC1CC[C@@]2(C)C(=CC[C@@H]3[C@@H]2CC[C@]2(C)Nc4c(cnn4-c4ccc(F)cc4)C[C@@H]32)C1 (stereo not given in full)", "assay target": "786-0 renal", "TGI": "> 59.2 µM"}
{"molecule": "COc1ccc2c(c1)C(=O)CC(C(N)=O)C2 (stereo not given)", "assay target": "786-0 renal", "TGI": "> 100 µM"}
{"molecule": "COc1cc(/C=[N+](\\[O-])c2ccccc2Cl)ccc1OC(=S)S", "assay target": "786-0 renal", "TGI": "> 100 µM"}
{"molecule": "CN1CCN(CCCn2c3c(sc4ncccc43)c(=O)n3nnc(-c4ccccc4)c23)CC1", "assay target": "786-0 renal", "TGI": "10.7 µM"}
{"molecule": "C#Cc1cccc(NC(=O)C2CCCCN2C(=O)CCl)c1 (stereo not given)", "assay target": "786-0 renal", "TGI": "32 µM"}
{"molecule": "CCCCCCCCC/C=C1/CC(CO)(COC(=O)C2CCCCC2)OC1=O (stereo not given)", "assay target": "786-0 renal", "TGI": "> 100 µM"}
{"molecule": "O=C(Cn1cc(I)c(C(=O)NCC(O)CO)n1)NCC(O)CO (stereo not given)", "assay target": "786-0 renal", "TGI": "> 100 µM"}
{"molecule": "C=C1C(=O)O[C@H]2[C@H]1CC/C(COC(=O)NCCc1ccc(Br)cc1)=C\\CC[C@@]1(C)O[C@@H]21", "assay target": "786-0 renal", "TGI": "2.4 µM"}
{"molecule": "O=C(N/N=C/c1ccc(O)cc1)NNCCO", "assay target": "786-0 renal", "TGI": "> 100 µM"}
{"molecule": "O=C(O)Cn1cnc2c(=O)[nH]c(Nc3ccccc3)nc21", "assay target": "786-0 renal", "TGI": "> 100 µM"}
{"molecule": "Cc1ccc(O)c(C(=O)/C=C/c2ccccc2)c1", "assay target": "786-0 renal", "TGI": "> 100 µM"}
{"molecule": "Cn1c(SCc2ccc([N+](=O)[O-])cc2)nnc1C12CC3CC(CC(C3)C1)C2", "assay target": "786-0 renal", "TGI": "> 10 µM"}

###

- System: HOP-62 NSCLC
- assay remarks: NCI tumour cell line growth inhibition, 48 h
The reader will find reported TGI values listed item by item below.

{"compound": "CC(C)C(N=C1CC2CCC1(C(=O)Nc1ccccc1O)C2(C)C)c1ccccc1 (stereo not given)", "assay target": "HOP-62 NSCLC", "TGI": "> 10 µM"}
{"compound": "Nc1ccc2ncc(NCc3ccc(F)cc3)nc2c1", "assay target": "HOP-62 NSCLC", "TGI": "> 100 µM"}
{"compound": "O=C(O)C(=Cc1ccc(-c2ccc([N+](=O)[O-])cc2)o1)C(=O)O", "assay target": "HOP-62 NSCLC", "TGI": "> 100 µM"}
{"compound": "COc1cc(/C=[N+](\\[O-])c2ccccc2Cl)ccc1OC(=S)S", "assay target": "HOP-62 NSCLC", "TGI": "> 100 µM"}
{"compound": "O=C(Nc1ccc(-c2cn3ccccc3n2)cc1)c1cc(Br)ccc1O", "assay target": "HOP-62 NSCLC", "TGI": "> 100 µM"}
